Reported ICW Screen is given for each of the following molecules.
ASSAYED SYSTEM: EGFR (Homo sapiens, UniProt P00533)
Construct: endogenous in cells; host or cells: A431 cells (ATCC CRL-1555)
Sequence (P00533 25-1210): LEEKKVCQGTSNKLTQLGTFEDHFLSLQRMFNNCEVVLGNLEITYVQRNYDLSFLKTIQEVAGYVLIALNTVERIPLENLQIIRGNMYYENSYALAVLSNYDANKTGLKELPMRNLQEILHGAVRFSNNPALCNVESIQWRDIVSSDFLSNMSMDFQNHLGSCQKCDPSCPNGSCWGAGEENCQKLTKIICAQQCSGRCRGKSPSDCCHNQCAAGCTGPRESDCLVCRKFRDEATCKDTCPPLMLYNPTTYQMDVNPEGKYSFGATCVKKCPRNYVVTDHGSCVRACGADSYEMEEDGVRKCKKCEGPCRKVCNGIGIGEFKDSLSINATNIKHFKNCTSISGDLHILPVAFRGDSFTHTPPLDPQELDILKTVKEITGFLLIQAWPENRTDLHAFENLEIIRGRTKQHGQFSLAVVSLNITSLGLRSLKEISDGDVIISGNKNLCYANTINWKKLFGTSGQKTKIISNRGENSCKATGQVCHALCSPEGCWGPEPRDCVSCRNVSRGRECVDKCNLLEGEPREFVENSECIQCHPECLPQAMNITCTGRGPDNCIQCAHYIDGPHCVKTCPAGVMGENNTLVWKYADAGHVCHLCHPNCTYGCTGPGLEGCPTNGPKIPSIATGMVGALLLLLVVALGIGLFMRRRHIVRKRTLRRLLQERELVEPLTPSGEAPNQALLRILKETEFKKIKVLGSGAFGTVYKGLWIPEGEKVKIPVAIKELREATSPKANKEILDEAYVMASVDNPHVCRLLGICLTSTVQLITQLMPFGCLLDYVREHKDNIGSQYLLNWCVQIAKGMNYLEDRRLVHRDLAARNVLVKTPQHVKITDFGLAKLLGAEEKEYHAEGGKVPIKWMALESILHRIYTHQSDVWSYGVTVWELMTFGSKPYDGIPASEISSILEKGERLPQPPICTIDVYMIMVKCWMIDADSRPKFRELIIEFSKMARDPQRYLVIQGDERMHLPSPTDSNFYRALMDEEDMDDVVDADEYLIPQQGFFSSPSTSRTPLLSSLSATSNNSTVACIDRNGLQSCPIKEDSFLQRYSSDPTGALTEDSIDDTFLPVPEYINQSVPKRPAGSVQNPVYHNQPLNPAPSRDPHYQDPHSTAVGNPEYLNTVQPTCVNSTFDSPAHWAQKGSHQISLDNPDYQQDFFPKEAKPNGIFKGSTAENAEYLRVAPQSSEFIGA
ASSAY NAME: EGFR in-cell Western (ICW) screening protocol
Assay type: cell-based
Parameters: unit not given here
RUN CONDITIONS: initial screen
Keep the answer to the number alone.

{"columns": ["MOLECULE", "ASSAYED SYSTEM", "ICW Screen"],
 "data": [
  ["Cc1ccnc(NC(c2ccc(Cl)cc2)c2ccc3cccnc3c2O)c1 (centres unmarked)", "EGFR (Homo sapiens, UniProt P00533)", 25.82],
  ["Oc1c(C(Nc2ccccn2)c2c(F)cccc2Cl)cc(Cl)c2cccnc12 (centres unmarked)", "EGFR (Homo sapiens, UniProt P00533)", 3.88],
  ["Oc1c(C(Nc2ccc(F)cc2)c2ccncc2)ccc2cccnc12 (centres unmarked)", "EGFR (Homo sapiens, UniProt P00533)", 28.24],
  ["Oc1c(C(Nc2cccnc2)c2ccc(C(F)(F)F)cc2)ccc2cccnc12 (centres unmarked)", "EGFR (Homo sapiens, UniProt P00533)", 56.15]
]}

Incoming: What value of ICW Screen has been reported for the following molecule? CCCOc1ccc(C(Nc2ccccn2)c2ccc3cccnc3c2O)cc1 (centres unmarked)
Outgoing: 30.12

* * *

Tested on: MDBK line
ASSAY NAME: MTT Cell Proliferation Assay, MDBK line
Assay type: cell-based, bovine
RUN CONDITIONS: Bos taurus, MDBK, 72 h; second value of A431/MDBK pair; read-out: MTT-72 h MDBK
Text: The following example describes the MTT Cell Proliferation Assay. The MTT Cell Proliferation Assay is a colorimetric assay system that measures the reduction of the tetrazolium salt MTT (3-(4,5-dimethylthiazol-2-yl)-2,5-diphenyltetrazolium bromide) into insoluble formazan crystals, produced by the mitochondria of viable cells. […] The color can then be quantified by spectrophotometric means. […] Plates were read in a Tecan Sunrize UV plate reader, at 560 nm. […]
In plain terms, low IC50, meaning strictly below 6 µM, gives Yes, and everything else gives No.

{"columns": ["MOLECULE", "ASSAYED SYSTEM", "CLASS NAME"],
 "data": [
  ["O=C(O)c1ccc(C(Nc2ccccn2)c2cc(Cl)c3cccnc3c2O)cc1 (stereo not drawn) [compound 10093]", "MDBK line", "No"],
  ["Oc1c(C(Nc2cccc(Cl)c2)c2cccnc2)ccc2cccnc12 (stereo not drawn) [compound 11057]", "MDBK line", "No"],
  ["Oc1c(C(Nc2ccccn2)c2cccc(F)c2)cc(Cl)c2cccnc12 (stereo not drawn) [compound 10090]", "MDBK line", "Yes"],
  ["COc1cc(C(Nc2cc(C)ccn2)c2ccc3cccnc3c2O)ccc1O (stereo not drawn) [compound 1973]", "MDBK line", "No"],
  ["COc1cc(C(Nc2ccccn2)c2cc(Cl)c3cccnc3c2O)cc(I)c1O (stereo not drawn) [compound 10086]", "MDBK line", "Yes"]
]}

Incoming: Please check: IC50 for Oc1c(C(Nc2ccccn2)c2ccccn2)cc(Cl)c2cccnc12 (stereo not drawn) [compound 10954] , strictly under 6 µM or not?
Outgoing: Yes

Incoming: Please check: IC50 for Cc1ccc2ccc(C(Nc3ccccn3)c3ccc(C)c(C)c3)c(O)c2n1 (stereo not drawn) [compound 10034] , strictly under 6 µM or not?
Outgoing: No

Incoming: Please check: IC50 for Oc1cccnc1NC(c1ccc(F)cc1)c1ccc2cccnc2c1O (stereo not drawn) [compound 10509] , strictly under 6 µM or not?
Outgoing: Yes
